Each recorded value in this set is attributed to paper PMC12155096.

The entries below come with measured IC50 values attached.
Molecular target: human CYP2D6 (Homo sapiens, UniProt P10635)
Sequence (P10635 whole entry): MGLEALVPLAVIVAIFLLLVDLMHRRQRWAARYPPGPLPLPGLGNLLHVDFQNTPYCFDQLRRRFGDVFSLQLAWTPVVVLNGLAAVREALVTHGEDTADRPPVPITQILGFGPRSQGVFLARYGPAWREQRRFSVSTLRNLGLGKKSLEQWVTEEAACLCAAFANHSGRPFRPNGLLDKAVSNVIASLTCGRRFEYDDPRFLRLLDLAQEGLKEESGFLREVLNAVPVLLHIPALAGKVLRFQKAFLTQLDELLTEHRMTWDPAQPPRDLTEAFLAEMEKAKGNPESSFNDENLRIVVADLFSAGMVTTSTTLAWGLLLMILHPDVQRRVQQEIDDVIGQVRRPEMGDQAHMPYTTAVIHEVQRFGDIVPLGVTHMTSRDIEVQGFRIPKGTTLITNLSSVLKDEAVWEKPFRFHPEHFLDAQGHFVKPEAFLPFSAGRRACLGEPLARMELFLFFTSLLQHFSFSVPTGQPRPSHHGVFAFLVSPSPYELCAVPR
Assay: biochemical
Conditions: CYP2D6 IC50 (half-maximal inhibitory concentration)
Structures can show the parent of a compound that is named as a salt.
quantity_kind: IC50

{"compound": "CN1CCCCC1CCN1c2ccccc2Sc2ccc([S+](C)[O-])cc21 (centres unmarked)", "data_value": "90 nM"}
{"compound": "CN1CCCC(CC2c3ccccc3Sc3ccccc32)C1 (centres unmarked) [Metixene hydrochloride]", "data_value": "440 nM"}
{"compound": "OC(CCN1CCCCC1)(c1ccccc1)C1CCCCC1 (centres unmarked) [Trihexyphenidyl hydrochloride]", "data_value": "760 nM"}
{"compound": "COP(N)(=S)Oc1ccccc1C(=O)OC(C)C (centres unmarked)", "data_value": "46100 nM"}
{"compound": "CCCc1nn(C)c2c(=O)[nH]c(-c3cc(S(=O)(=O)N4CCN(C)CC4)ccc3OCC)nc12 [Sildenafil citrate]", "data_value": "31700 nM"}

###

Target: human CYP2C9 (Homo sapiens, UniProt P11712)
Sequence (P11712 whole entry): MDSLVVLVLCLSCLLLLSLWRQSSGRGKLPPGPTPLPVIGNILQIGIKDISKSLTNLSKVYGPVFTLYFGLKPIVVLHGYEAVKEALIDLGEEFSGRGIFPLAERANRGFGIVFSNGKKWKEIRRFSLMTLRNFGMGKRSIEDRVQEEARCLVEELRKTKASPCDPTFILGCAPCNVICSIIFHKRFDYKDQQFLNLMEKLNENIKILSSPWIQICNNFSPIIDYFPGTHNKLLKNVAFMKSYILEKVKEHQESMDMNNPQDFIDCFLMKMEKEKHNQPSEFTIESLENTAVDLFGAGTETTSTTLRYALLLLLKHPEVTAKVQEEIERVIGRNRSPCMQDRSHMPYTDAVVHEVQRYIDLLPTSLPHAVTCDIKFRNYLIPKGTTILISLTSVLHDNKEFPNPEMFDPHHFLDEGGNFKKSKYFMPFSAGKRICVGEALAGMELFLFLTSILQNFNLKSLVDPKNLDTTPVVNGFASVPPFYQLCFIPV
Listed below: log10 IC50 values for each entry.
quantity_kind: log10 IC50 (log10 of the value in µM)

{"compound": "COc1cc2c(cc1N)oc1ccccc12 [2-Methoxy-3-aminodibenzofuran]", "log10 IC50": 0.79}
{"compound": "CC(C)(C)c1cc(CCC(=O)NN)cc(C(C)(C)C)c1O", "log10 IC50": 0.77}
{"compound": "C=CCOC(=O)c1ccc(C(=O)OCC=C)c(C(=O)OCC=C)c1 [Triallyl trimellitate]", "log10 IC50": -0.48}
{"compound": "[Cl][Bi]([Cl])([c]1ccccc1)([c]1ccccc1)[c]1ccccc1 [Triphenylbismuthine dichloride]", "log10 IC50": -0.06}
{"compound": "O=C1c2ccccc2C(=O)C1C(=O)C(c1ccccc1)c1ccc(Cl)cc1 (stereo not drawn) [Cholorophacinone]", "log10 IC50": -0.05}
{"compound": "CCC(=O)O[C@]1(C(=O)COC)[C@@H](C)C[C@H]2[C@@H]3CCC4=CC(=O)C=C[C@]4(C)[C@@]3(F)[C@@H](O)C[C@@]21C [Amelometasone]", "log10 IC50": 1.41}
{"compound": "CCCCCCCCCCCCCC[P+](CCCCCC)(CCCCCC)CCCCCC.O=S(=O)([N-]S(=O)(=O)C(F)(F)F)C(F)(F)F", "log10 IC50": 0.81}
{"compound": "O=C(NCc1cccnc1)Nc1ccc([N+](=O)[O-])cc1 [Pyrinuron]", "log10 IC50": 0.73}
{"compound": "CC[C@]12CCCN3CCc4c(n(c5ccccc45)C(=O)C1)[C@@H]32 [(-)-Eburnamonine]", "log10 IC50": 1.30}
{"compound": "CC(=O)OC1(c2ccccc2)CCN(CCc2ccccc2)CC1", "log10 IC50": 1.73}
{"compound": "FC(F)(F)c1ccccc1-n1ccnc1", "log10 IC50": 0.92}
{"compound": "[Cl][Hg][Cl] [Mercuric chloride]", "log10 IC50": -0.33}

###

Target: human CYP2C19 (Homo sapiens, UniProt P33261)
Sequence (P33261 whole entry): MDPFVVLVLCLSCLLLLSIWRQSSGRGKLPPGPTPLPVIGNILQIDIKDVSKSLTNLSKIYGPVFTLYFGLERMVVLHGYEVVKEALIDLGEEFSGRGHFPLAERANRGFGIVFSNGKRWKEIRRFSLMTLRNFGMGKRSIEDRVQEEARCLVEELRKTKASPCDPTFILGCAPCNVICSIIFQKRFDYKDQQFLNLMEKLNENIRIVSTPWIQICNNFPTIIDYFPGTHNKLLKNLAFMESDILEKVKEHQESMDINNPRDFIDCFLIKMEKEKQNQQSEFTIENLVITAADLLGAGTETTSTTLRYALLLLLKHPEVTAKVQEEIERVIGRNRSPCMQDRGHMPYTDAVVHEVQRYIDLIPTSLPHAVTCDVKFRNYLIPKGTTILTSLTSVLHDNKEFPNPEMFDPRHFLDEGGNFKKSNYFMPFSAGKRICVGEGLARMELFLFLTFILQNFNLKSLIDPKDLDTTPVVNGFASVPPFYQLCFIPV
Structures can show the parent of a compound that is named as a salt.
// returns not fulfilled unless AC50 is strictly below 20 µM, in which case fulfilled

{"compound": "CCOC(=O)c1ccc(N(C)C)cc1 [Parbenate]", "answer_label": "not fulfilled"}
{"compound": "CCN(CC)c1ccc2c(C)cc(=O)oc2c1 [7-Diethylamino-4-methylcoumarin]", "answer_label": "not fulfilled"}
{"compound": "O=C(OCCOCCOCCOC(=O)c1ccccc1)c1ccccc1 [Triethylene glycol dibenzoate]", "answer_label": "not fulfilled"}
{"compound": "O=C(c1ccccc1)c1cccc(O)c1 [3-Hydroxybenzophenone]", "answer_label": "not fulfilled"}
{"compound": "N.O=C(O)C(F)(F)C(F)(F)C(F)(F)C(F)(F)C(F)(F)C(F)(F)C(F)(F)F [PFOA, ammonium salt]", "answer_label": "not fulfilled"}
{"compound": "O=C(c1ccc(O)c(O)c1)c1ccc(O)cc1O [2,3',4,4'-Tetrahydroxybenzophenone]", "answer_label": "not fulfilled"}
{"compound": "CC(C)(C)c1ccc(OP(=O)(Oc2ccccc2)Oc2ccccc2)cc1 [tert-Butylphenyl diphenyl phosphate]", "answer_label": "fulfilled"}
{"compound": "CCOC(=O)CC(CC(=O)OCC)(OC(C)=O)C(=O)OCC [Acetyltriethyl citrate]", "answer_label": "fulfilled"}
{"compound": "C=C(C)C(=O)OCCOc1ccccc1", "answer_label": "not fulfilled"}
{"compound": "O=C(Oc1ccccc1)c1cccc(C(=O)Oc2ccccc2)c1 [Diphenyl isophthalate]", "answer_label": "fulfilled"}
{"compound": "CCOC(=O)C(C#N)=C(c1ccccc1)c1ccccc1 [Ethyl 2-cyano-3,3-diphenylacrylate]", "answer_label": "fulfilled"}
{"compound": "CCCC(C)c1ccccc1O (centres unmarked) [2-(1-Methylbutyl)phenol]", "answer_label": "fulfilled"}
{"compound": "Cl.O.c1cnc2c(c1)ccc1cccnc12", "answer_label": "fulfilled"}
{"compound": "CC(=O)OC1(c2ccccc2)CCN(CCc2ccccc2)CC1", "answer_label": "not fulfilled"}
{"compound": "CCCCCCCCCCCC(=O)O.OCCN(CCO)CCO [Triethanolamine Laurate]", "answer_label": "not fulfilled"}
{"compound": "OCc1cccc(Oc2ccccc2)c1 [3-Phenoxybenzenemethanol]", "answer_label": "not fulfilled"}
{"compound": "N#CCc1ccc(Cl)cc1Cl [(2,4-Dichlorophenyl)acetonitrile]", "answer_label": "not fulfilled"}
{"compound": "OCC(CBr)(CBr)CBr [3-Bromo-2,2-bis(bromomethyl)propanol]", "answer_label": "not fulfilled"}
{"compound": "CCCOC(=O)c1c(Cl)c(Cl)c(Cl)c(Cl)c1C(=O)OCCC", "answer_label": "fulfilled"}
{"compound": "CCCCCCCCC(CCCCCC)C(=O)O (centres unmarked) [2-Hexyldecanoic acid]", "answer_label": "not fulfilled"}
{"compound": "CC(C)(C)C1=CC(=O)C(C(C)(C)C)=CC1=O", "answer_label": "fulfilled"}
{"compound": "c1ccc(SCCSc2ccccc2)cc1 [1,2-Bis(phenylthio)ethane]", "answer_label": "fulfilled"}
{"compound": "C=C(C)C(=O)OCCCCCCOC(=O)C(=C)C [1,6-Hexanediol dimethacrylate]", "answer_label": "not fulfilled"}
{"compound": "O=C(OCCCCCOC(=O)c1ccccc1)c1ccccc1 [Pentane-1,5-diyl dibenzoate]", "answer_label": "not fulfilled"}
{"compound": "CC(=O)OC(C(=O)c1ccccc1)c1ccccc1 (centres unmarked) [Benzoin acetate]", "answer_label": "fulfilled"}
{"compound": "O=C1C=CC(=O)N1c1cccc(N2C(=O)C=CC2=O)c1 [N,N'-1,3-Phenylenedimaleimide]", "answer_label": "fulfilled"}
{"compound": "CCOC(=O)C1=NOC(c2ccccc2)(c2ccccc2)C1 [Isoxadifen-ethyl]", "answer_label": "not fulfilled"}
{"compound": "CC(C)CC(O)Cc1ccccc1 (centres unmarked) [4-Methyl-1-phenyl-2-pentanol]", "answer_label": "not fulfilled"}
{"compound": "O=C(NCc1ncc(C(F)(F)F)cc1Cl)c1c(Cl)cccc1Cl [Fluopicolide]", "answer_label": "fulfilled"}
{"compound": "CN1C(=O)N(c2ccccc2Br)Cc2cnc(Nc3ccc4c(c3)OCC(CO)O4)nc21 (centres unmarked) [PharmaGSID_48519]", "answer_label": "fulfilled"}
{"compound": "COC(=O)Cc1cccc2ccccc12 [Methyl 1-naphthaleneacetate]", "answer_label": "not fulfilled"}
{"compound": "O=C(Cc1ccccc1)OCc1ccccc1 [Benzyl phenylacetate]", "answer_label": "fulfilled"}
{"compound": "CCOC(=O)N1CCC(n2c(=O)[nH]c3cc(Cl)ccc32)CC1", "answer_label": "fulfilled"}
{"compound": "CC(C)NC(=O)c1ccccc1N [2-Amino-N-(1-methylethyl)benzamide]", "answer_label": "fulfilled"}
{"compound": "O=C(OCCCCCCOC(=O)c1ccccc1)c1ccccc1 [Hexane-1,6-diyl dibenzoate]", "answer_label": "not fulfilled"}
{"compound": "Nc1ccccc1S(=O)(=O)c1ccccc1 [2-(Phenylsulfonyl)aniline]", "answer_label": "fulfilled"}
{"compound": "COC(=O)c1ccc(C(=O)OC)c(C(=O)OC)c1 [Trimethyl benzene-1,2,4-tricarboxylate]", "answer_label": "not fulfilled"}
